Each item that follows carries a reported PBM E-score.
Target: Nrg2 (UniProt P38082)
Sequence: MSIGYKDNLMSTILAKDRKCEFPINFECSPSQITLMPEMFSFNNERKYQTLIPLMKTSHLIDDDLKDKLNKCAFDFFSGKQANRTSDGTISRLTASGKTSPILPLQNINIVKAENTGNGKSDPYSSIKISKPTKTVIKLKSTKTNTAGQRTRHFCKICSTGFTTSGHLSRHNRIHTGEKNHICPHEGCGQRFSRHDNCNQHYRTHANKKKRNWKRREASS
Test: PBM E-score (8-mer binding enrichment) (E-score (-0.5 to 0.5)); higher = stronger / more preferred TF binding
Settings: protein concentration: 100 nM; construct: GST-full length
The full ranking holds about 33,000 sequences; the median of “E-score (-0.5 to 0.5)” is about -8e-05, and the highest 2% start at about 0.23. Many of the other results were omitted from the sample, so the highest values are more common in it than they were.
Format: numeric value only, no unit, no commentary.

Sample answers from the record:
{"SEQ STRING": "CGCGGATA", "PBM E-score": 0.246}
{"SEQ STRING": "GAGTATTA", "PBM E-score": 0.00698}
{"SEQ STRING": "GTATCATA", "PBM E-score": 0.251}

// query Consider the sequence shown here: CACGGATG What is its recorded PBM E-score?
// result -0.149

// query Consider the sequence shown here: AGGCGCCC What is its recorded PBM E-score?
// result -0.0716

// query Consider the sequence shown here: ATATCATA What is its recorded PBM E-score?
// result 0.174

// query Consider the sequence shown here: AACGGATT What is its recorded PBM E-score?
// result 0.148

// query Consider the sequence shown here: ACAACAGA What is its recorded PBM E-score?
// result -0.0576

// query Consider the sequence shown here: CAGTATTA What is its recorded PBM E-score?
// result 0.244

// query Consider the sequence shown here: CGAGATTC What is its recorded PBM E-score?
// result 0.143

// query Consider the sequence shown here: CACGGATA What is its recorded PBM E-score?
// result 0.235

// query Consider the sequence shown here: ATGAAGTC What is its recorded PBM E-score?
// result -0.0277

// query Consider the sequence shown here: CACCCGAC What is its recorded PBM E-score?
// result -0.0642

// query Consider the sequence shown here: CTATCATA What is its recorded PBM E-score?
// result 0.125

// query Consider the sequence shown here: CGAGGAAC What is its recorded PBM E-score?
// result 0.269

// query Consider the sequence shown here: CCGCGCGC What is its recorded PBM E-score?
// result 0.236
